# Tested on: PCSK9 gene
# assay_info: PCSK9 gRNA/SpCas9 editing in primary cynomolgus hepatocytes (Tables 2, 22)
# Assay type: cell-based, cynomolgus monkey
# experimental_context: 2500 ng/RNA/mL; SpCas9 mRNA MS002 1:1 by weight
m = 2'-O-methyl; r = 2'-OH (RNA)
test_readout: Cyno Primary Hepatocyte Editing % 2500 (%)
Give just the numeric value; % need not be written.

Completed entries (count: 4):
molecule="GA202: PCSK9 gRNA; protospacer AAGCGGGTCCCGTCCTCCTC (SEQ ID NO: 196) (nucleic acid, sugars from the 5' end m3 r94 m3, linkages s3 o93 s3 (s phosphorothioate, o phosphodiester), T or U not given here) guide: AAGCGGGUCCCGUCCUCCUCGUUUUAGAGCUAGAAAUAGCAAGUUAAAAUAAGGCUAGUCCGUUAUCAACUUGAAAAAGUGGCACCGAGUCGGUGCUUUU" unit=% readout_value=31.13
molecule="GA172: PCSK9 gRNA; protospacer CAGTGCGCTCTGACTGCGAG (SEQ ID NO: 166) (nucleic acid, sugars from the 5' end m3 r94 m3, linkages s3 o93 s3 (s phosphorothioate, o phosphodiester), T or U not given here) guide: CAGUGCGCUCUGACUGCGAGGUUUUAGAGCUAGAAAUAGCAAGUUAAAAUAAGGCUAGUCCGUUAUCAACUUGAAAAAGUGGCACCGAGUCGGUGCUUUU" unit=% readout_value=15.58
molecule="GA243: PCSK9 gRNA; protospacer GGCGAGGGCTGGGGTCGTGC (SEQ ID NO: 236) (nucleic acid, sugars from the 5' end m3 r94 m3, linkages s3 o93 s3 (s phosphorothioate, o phosphodiester), T or U not given here) guide: GGCGAGGGCUGGGGUCGUGCGUUUUAGAGCUAGAAAUAGCAAGUUAAAAUAAGGCUAGUCCGUUAUCAACUUGAAAAAGUGGCACCGAGUCGGUGCUUUU" unit=% readout_value=10.18
molecule="GA238: PCSK9 gRNA; protospacer GCACGACCCCAGCCCTCGCC (SEQ ID NO: 231) (nucleic acid, sugars from the 5' end m3 r94 m3, linkages s3 o93 s3 (s phosphorothioate, o phosphodiester), T or U not given here) guide: GCACGACCCCAGCCCUCGCCGUUUUAGAGCUAGAAAUAGCAAGUUAAAAUAAGGCUAGUCCGUUAUCAACUUGAAAAAGUGGCACCGAGUCGGUGCUUUU" unit=% readout_value=17.92

Cyno Primary Hepatocyte Editing % 2500 in this record for GA171: PCSK9 gRNA; protospacer TCTTGGTGAGGTATCCCCGG (SEQ ID NO: 165) (nucleic acid, 2'-O-methyl at 1, 2, other sugars, backbone and T or U not given here; further chemistry not fully specified) guide: UCTTGGTGAGGTATCCCCGGGTTTTAGAGCTAGAAATAGCAAGTTAAAATAAGGCTAGTCCGTTATCAACTTGAAAAAGTGGCACCGAGTCGGTGCTTTT : 27.79

Entry GA212: PCSK9 gRNA; protospacer CGGGATGCCGGCGTGGCCAA (SEQ ID NO: 206) (nucleic acid, sugars from the 5' end m3 r94 m3, linkages s3 o93 s3 (s phosphorothioate, o phosphodiester), T or U not given here) guide: CGGGAUGCCGGCGUGGCCAAGUUUUAGAGCUAGAAAUAGCAAGUUAAAAUAAGGCUAGUCCGUUAUCAACUUGAAAAAGUGGCACCGAGUCGGUGCUUUU , Cyno Primary Hepatocyte Editing % 2500 reported as 54.89

Reported Cyno Primary Hepatocyte Editing % 2500 ( GA237: PCSK9 gRNA; protospacer CAACGCCGCCTGCCAGCGCC (SEQ ID NO: 230) (nucleic acid, sugars from the 5' end m3 r94 m3, linkages s3 o93 s3 (s phosphorothioate, o phosphodiester), T or U not given here) guide: CAACGCCGCCUGCCAGCGCCGUUUUAGAGCUAGAAAUAGCAAGUUAAAAUAAGGCUAGUCCGUUAUCAACUUGAAAAAGUGGCACCGAGUCGGUGCUUUU ) = 46.01

Cyno Primary Hepatocyte Editing % 2500 recorded for this molecule, GA221: PCSK9 gRNA; protospacer TCATGGCACCCACCTGGCAG (SEQ ID NO: 215) (nucleic acid, sugars from the 5' end m3 r94 m3, linkages s3 o93 s3 (s phosphorothioate, o phosphodiester), T or U not given here) guide: UCAUGGCACCCACCUGGCAGGUUUUAGAGCUAGAAAUAGCAAGUUAAAAUAAGGCUAGUCCGUUAUCAACUUGAAAAAGUGGCACCGAGUCGGUGCUUUU , is 57.4

Recorded result, GA195: PCSK9 gRNA; protospacer ACCACCGGGAAATCGAGGGC (SEQ ID NO: 189) (nucleic acid, sugars from the 5' end m3 r94 m3, linkages s3 o93 s3 (s phosphorothioate, o phosphodiester), T or U not given here) guide: ACCACCGGGAAAUCGAGGGCGUUUUAGAGCUAGAAAUAGCAAGUUAAAAUAAGGCUAGUCCGUUAUCAACUUGAAAAAGUGGCACCGAGUCGGUGCUUUU , Cyno Primary Hepatocyte Editing % 2500: 18.78

The recorded Cyno Primary Hepatocyte Editing % 2500 for GA197: PCSK9 gRNA; protospacer AGTGACCACCGGGAAATCGA (SEQ ID NO: 191) (nucleic acid, sugars from the 5' end m3 r94 m3, linkages s3 o93 s3 (s phosphorothioate, o phosphodiester), T or U not given here) guide: AGUGACCACCGGGAAAUCGAGUUUUAGAGCUAGAAAUAGCAAGUUAAAAUAAGGCUAGUCCGUUAUCAACUUGAAAAAGUGGCACCGAGUCGGUGCUUUU is 18.21

Short answer for GA206: PCSK9 gRNA; protospacer CCGGTGGTCACTCTGTATGC (SEQ ID NO: 200) (nucleic acid, sugars from the 5' end m3 r94 m3, linkages s3 o93 s3 (s phosphorothioate, o phosphodiester), T or U not given here) guide: CCGGUGGUCACUCUGUAUGCGUUUUAGAGCUAGAAAUAGCAAGUUAAAAUAAGGCUAGUCCGUUAUCAACUUGAAAAAGUGGCACCGAGUCGGUGCUUUU : Cyno Primary Hepatocyte Editing % 2500 was 16.9

Source: patent US20250152746A1
